The measurements presented in this section are drawn from patent US11667636B2.

Target: UniProt:Q96LB1
Sequence (Q96LB1 1-330): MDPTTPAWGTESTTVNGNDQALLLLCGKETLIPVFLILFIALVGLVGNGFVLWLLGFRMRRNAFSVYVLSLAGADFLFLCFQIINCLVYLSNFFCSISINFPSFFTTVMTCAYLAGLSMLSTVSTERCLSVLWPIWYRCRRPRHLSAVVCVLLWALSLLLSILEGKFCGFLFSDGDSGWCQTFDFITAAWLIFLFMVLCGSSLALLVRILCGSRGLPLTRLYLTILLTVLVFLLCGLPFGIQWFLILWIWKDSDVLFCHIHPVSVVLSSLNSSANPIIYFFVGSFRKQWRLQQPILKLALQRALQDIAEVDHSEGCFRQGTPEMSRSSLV
Test: MRGPRX2 Activity: IP-One HTRF antagonist assay in CHO cells stably expressing human MRGPRX2, versus Cortistatin-14
Conditions: versus 0.3 uM Cortistatin-14 agonist, IP-1 HTRF, read-out: MRGPR2 Antagonist Activity
pIC50: −log10 of the molar value.
PROPERTY_NAME: pIC50

* COc1ccc(C(=O)N[C@H]2CC[C@@H](Nc3cccc4nc(C(F)F)cn34)CC2)c(F)c1 [2-27] | 6.30 to 7.00
* O=C(N[C@H]1CC[C@@H](Nc2cccc3nc(C(F)(F)F)cn23)CC1)c1c[nH]nc1Cl [2-176] | > 7.30
* O=C(N[C@H]1CC[C@@H](Nc2cccc3nc(C(F)(F)F)cn23)CC1)c1cccc2[nH]ccc12 [2-232] | > 7.30
* COc1ccc(C(=O)N[C@H]2CC[C@@H](Nc3cccc4nc(C(F)(F)F)sc34)CC2)cc1 [1-22] | 7.00 to 7.29
* O=C(N[C@H]1CC[C@@H](Nc2cccc3nc(C(F)(F)F)cn23)CC1)c1n[nH]c2ccccc12 [2-9] | 6.30 to 7.00
* CNc1ccc(C(=O)N[C@H]2CC[C@@H](Nc3cccc4nc(C#N)cn34)CC2)cc1 [2-259] | 6.30 to 7.00
* O=C(N[C@H]1CC[C@@H](Nc2cccc3sc(C(F)(F)F)cc23)CC1)c1ccc(F)cc1 [Example 1] | 6.30 to 7.00
* O=C(N[C@H]1CC[C@@H](Nc2cccc3sc(C(F)(F)F)cc23)CC1)c1cc2ccccn2n1 [2-1] | 7.00 to 7.29
* Cc1n[nH]c2c(C(=O)N[C@H]3CC[C@@H](Nc4cccc5nc(C(F)(F)F)cn45)CC3)cccc12 [2-183] | > 7.30
* O=C(N[C@H]1CC[C@@H](Nc2cccc3nc(C(F)F)cn23)CC1)c1ccc(Cl)cc1Cl [2-275] | 6.30 to 7.00
* CC(C#N)c1cccc(C(=O)N[C@H]2CC[C@@H](Nc3cccc4sc(C(F)(F)F)cc34)CC2)c1 (some centres unmarked) [2-5] | 6.30 to 7.00
* CNc1ccccc1C(=O)N[C@H]1CC[C@@H](Nc2cccc3nc(C#N)cn23)CC1 [2-262] | 6.30 to 7.00
* O=C(N[C@H]1CC[C@@H](Nc2cccc3nc(C(F)F)cn23)CC1)c1c[nH]nc1NCC(F)F [2-194] | > 7.30
* O=C(N[C@H]1CC[C@@H](Nc2cccc3nc(C(F)(F)F)cn23)CC1)c1ccc2nccn2c1 [2-165] | > 7.30
* N#Cc1cc2c(N[C@H]3CC[C@@H](NC(=O)c4ccc(F)cc4)CC3)cccc2s1 [1-20] | 7.00 to 7.29
* O=C(N[C@H]1CC[C@@H](Nc2cccc3nc(C(F)(F)F)cn23)CC1)c1cn(C(F)F)nc1C(F)F [2-228] | > 7.30
* Cn1cc(C(=O)N[C@H]2CC[C@@H](Nc3cccc4nc(C(F)(F)F)cn34)CC2)nn1 [2-233] | 6.30 to 7.00
* Cn1cc(C(=O)N[C@H]2CC[C@@H](Nc3cccc4nc(C(F)(F)F)cn34)CC2)c(C2CC2)n1 [2-191] | 7.00 to 7.29
* Cn1ncc(C(=O)N[C@H]2CC[C@@H](Nc3cccc4nc(C(F)F)cn34)CC2)c1NCC(F)F [2-270] | 7.00 to 7.29
* O=C(N[C@H]1CC[C@@H](Nc2cccc3nc(C(F)F)cn23)CC1)c1ccccc1NCC(F)(F)F [2-143] | > 7.30
* O=C(N[C@H]1CC[C@@H](Nc2cccc3nc(C(F)(F)F)cn23)CC1)c1ccn(CC(F)F)n1 [2-135] | > 7.30
* CC(C)Oc1ccc(C(=O)N[C@H]2CC[C@@H](Nc3cccc4nc(C(F)(F)F)cn34)CC2)cc1Cl [2-207] | 6.30 to 7.00
* O=C(N[C@H]1CC[C@@H](Nc2cccc3nc(C(F)(F)F)cn23)CC1)c1c[nH]nc1C1CC1 [2-141] | > 7.30
* O=C(N[C@H]1CC[C@@H](Nc2cccc3nc(C(F)F)cn23)CC1)c1cccc2[nH]c(C(F)F)nc12 [2-151] | 6.30 to 7.00
* Nc1nn(CC(F)F)cc1C(=O)N[C@H]1CC[C@@H](Nc2cccc3nc(C(F)(F)F)cn23)CC1 [Example 6] | > 7.30
* CCOCc1cc2c(N[C@H]3CCC[C@@H](NC(=O)c4ccc(OC)cc4)C3)cccc2s1 [1-3] | < 6.00
* O=C(N[C@H]1CC[C@@H](Nc2cccc3nc(C(F)(F)F)cn23)CC1)c1cccc2cn[nH]c12 [2-10] | > 7.30
* O=C(N[C@H]1CC[C@@H](Nc2cccc3nc(C(F)(F)F)cn23)CC1)c1cccc(NCC(F)F)c1 [2-178] | > 7.30
* Cn1ncc(C(=O)N[C@H]2CC[C@@H](Nc3cccc4nc(C(F)(F)F)cn34)CC2)c1C1CC1 [2-245] | 6.30 to 7.00
* N#Cc1nn(C(F)F)cc1C(=O)N[C@H]1CC[C@@H](Nc2cccc3nc(C(F)(F)F)cn23)CC1 [2-229] | > 7.30
* COc1cccc2cc(C(=O)N[C@H]3CC[C@@H](Nc4cccc5nc(C(F)(F)F)cn45)CC3)oc12 [2-166] | 7.00 to 7.29
* CN(CC(F)F)c1ccc(C(=O)N[C@H]2CC[C@@H](Nc3cccc4nc(C(F)(F)F)cn34)CC2)cc1 [2-181] | > 7.30
